assay.overview: NCI Yeast Anticancer Drug Screen. Data for the mec2-1 strain (AID 157)
setup.conditions: S. cerevisiae mec2-1 strain, at 50.0 µM (retest, dose inferred, filed as 5.0), stronger effect = higher value
The panel holds about 79,000 compounds, 15% with a hit somewhere; the sample as a whole holds those more often.
Recorded growth inhibition for the following compounds

[
  {
    "compound": "[O-][n+]1onc2ccccc21",
    "growth inhibition, %": 99
  },
  {
    "compound": "CC(Cc1ccccc1)[N+](=O)[O-] (stereo unspecified)",
    "growth inhibition, %": 6
  },
  {
    "compound": "CC[C@@]1(O)C(=O)OCc2c1cc1n(c2=O)Cc2cc3cc4c(cc3nc2-1)OCO4",
    "growth inhibition, %": 94
  },
  {
    "compound": "O=c1oc2ccccc2c(O)c1C(c1ccc(-c2ccccc2)cc1)c1c(O)c2ccccc2oc1=O",
    "growth inhibition, %": 97
  },
  {
    "compound": "[Se]C(=NCc1ccccc1)NCc1ccccc1",
    "growth inhibition, %": 15
  },
  {
    "compound": "COc1cc2ccccc2c2cc([N+](=O)[O-])oc12",
    "growth inhibition, %": 62
  }
]
